Target: T1, human VEGF110 (human, UniProt P15692)
T1 chain: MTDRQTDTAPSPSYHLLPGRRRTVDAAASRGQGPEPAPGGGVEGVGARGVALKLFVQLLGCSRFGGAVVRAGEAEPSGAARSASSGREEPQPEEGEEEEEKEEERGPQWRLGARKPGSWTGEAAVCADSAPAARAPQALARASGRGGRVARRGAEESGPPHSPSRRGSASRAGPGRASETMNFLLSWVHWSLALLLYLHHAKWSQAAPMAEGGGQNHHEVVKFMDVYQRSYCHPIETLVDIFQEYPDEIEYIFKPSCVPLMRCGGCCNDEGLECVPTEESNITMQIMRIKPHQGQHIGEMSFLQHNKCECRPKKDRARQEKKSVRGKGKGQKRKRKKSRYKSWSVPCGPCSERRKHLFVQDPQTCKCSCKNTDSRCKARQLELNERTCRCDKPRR
Assay: SPR, pH 5
Endpoint: Kd
Enter the number, and then the unit.

Here are 2 binders together with their reported answers.
• 511-min (antibody, V domains shown) VH: EVQLVESGGGLVQPGGSLRLSCAASGFSLNTYYMNWVRQAPGKGLEWVSIIAPDDTTYYASWAKSRFTISRDNSKNTLYLQMNSLRAEDTAVYYCAKSGDTTAWGADIWGQGTLVTVSS VL: EIVMTQSPSTLSASVGDRVIITCQASQSINIWCSWYQQKPGKAPKLLIYRASTLASGVPSRFSGSGSGAEFTLTISSLQPDDFATYYCQANYAYSAGYGAAFGQGTKLTVLG = 1.45 nM
• 578-max (antibody, V domains shown) VH: EVQLVESGGGLVQPGGSLRLSCTASGFSLTDYYYMTWVRQAPGKGLEWVGFIDPDDDPYYATWAKGRFTISRDTSKNTVYLQMNSLRAEDTAVYYCAGGDHNSGWGLDIWGQGTLVTVSS VL: EIVMTQSPSTLSASVGDRVIITCQASEIIHSWLAWYQQKPGKAPKLLIYLASTLASGVPSRFSGSGSGTQFTLTISSLQPDDFATYYCQNVYLASTNGANFGQGTKLTVLG = 1.38 nM

**Query** Record request: Kd value, item 509-maxII (antibody, V domains shown) VH: EVQLVESGGGLVQPGGSLRLSCTASGFSLSSYYMSWVRQAPGKGLEWVGILDYVGDTDYASWAKGRFTISKDASKNTVYLQMNSLRAEDTAVYYCARTDDSRGWGLNIWGQGTLVTVSS VL: EIVMTQSPSTLSASVGDRVIITCQASQNIRIWLSWYQQKPGKAPKLLIYKASTLESGVPSRFSGSGSGTEFTLTISSLQPDDFATYYCQNNAHYSTNGGTFGQGTKLTVLG
**Result** 1.48 nM

**Query** Record request: Kd value, item 511-max (antibody, V domains shown) VH: EVQLVESGGGLVQPGGSLRLSCTVSGFSLNTYYMNWVRQAPGKGLEWVGIIAPDDTTYYASWAKSRSTISRDTSKNTVYLQMNSLRAEDTAVYYCARSGDTTAWGADIWGQGTLVTVSS VL: EIVMTQSPSTLSASVGDRVIITCQASQSINIWLSWYQQKPGKAPKLLIYRASTLASGVPSRFSGSGSGTEFTLTISSLQPDDFATYYCQANYAYSAGYGAAFGQGTKLTVLG
**Result** 0.197 nM

**Query** Record request: Kd value, item 567-max (antibody, V domains shown) VH: EVQLVESGGGLVQPGGSLRLSCSVSGFSLSDYYMCWVRQAPGKGLEWVGCLDYFGSTDDASWAKGRFTISKDTSKNTVYLQMNSLRAEDTAVYYCARTDDSRGWGLNIWGQGTLVTVSS VL: EIVMTQSPSTLSASVGDRVIITCQADQSIYIWLSWYQQKPGKAPKLLIYKASTLESGVPSRFSGSGSGTQFTLTISSLQPDDFATYYCQNNAHYSTNGGTFGQGTKLTVLG
**Result** 0.0327 nM

**Query** Record request: Kd value, item 567-min (antibody, V domains shown) VH: EVQLVESGGGLVQPGGSLRLSCAASGFSLSDYYMCWVRQAPGKGLEWVSCLDYFGSTDDASWAKGRFTISRDNSKNTLYLQMNSLRAEDTAVYYCAKTDDSRGWGLNIWGQGTLVTVSS VL: EIVMTQSPSTLSASVGDRVIITCQADQSIYIWLSWYQQKPGKAPKLLIYKASTLESGVPSRFSGSGSGAEFTLTISSLQPDDFATYYCQNNAHYSTNGGTFGQGTKLTVLG
**Result** 0.0251 nM

**Query** Record request: Kd value, item 509-max (antibody, V domains shown) VH: EVQLVESGGGLVQPGGSLRLSCTASGFSLSSYYMCWVRQAPGKGLEWVGCLDYVGDTDYASWAKGRFTISKDASKNTVYLQMNSLRAEDTAVYYCARTDDSRGWGLNIWGQGTLVTVSS VL: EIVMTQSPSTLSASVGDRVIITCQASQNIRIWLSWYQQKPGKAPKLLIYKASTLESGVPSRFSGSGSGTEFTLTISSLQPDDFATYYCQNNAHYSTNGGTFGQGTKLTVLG
**Result** 0.363 nM

Source listed as patent US10590193.
